Property: LD50; scope: individual compounds
assay: acute toxicity, single injection; assay type: in vivo, Mouse; conditions: mouse, in vivo, ip; intraperitoneal, single injection

Compound | LD50, mg/kg
CCC1(O)CC(OC2CC(N(C)C)C(OC3CC(O)C(OC4CCC(=O)C(C)O4)C(C)O3)C(C)O2)c2c(cc3c(c2O)C(=O)c2c(O)cccc2C3=O)C1C(=O)OC (centres unmarked) | 22.6
CCC1(O)CC(OC2CC(N(C)C)C(OC3CC4OC5CC(=O)C(C)OC5OC4C(C)O3)C(C)O2)c2c(cc3c(c2O)C(=O)c2c(O)cccc2C3=O)C1C(=O)OC (centres unmarked) | 13.7

====

Property: LD50; scope: individual molecules
assay: acute toxicity, single injection; type: in vivo, Rat; conditions: rat, in vivo; intravenous, single injection

Molecule | Unit descriptor | LD50
CCC1(O)CC(OC2CC(N(C)C)C(OC3CC4OC5CC(=O)C(C)OC5OC4C(C)O3)C(C)O2)c2c(cc3c(c2O)C(=O)c2c(O)cccc2C3=O)C1C(=O)OC (centres unmarked) [Aclacinomycin B] | mg/kg | 15
CCC1(O)CC(OC2CC(N(C)C)C(OC3CC(O)C(OC4CCC(=O)C(C)O4)C(C)O3)C(C)O2)c2c(cc3c(c2O)C(=O)c2c(O)cccc2C3=O)C1C(=O)OC (centres unmarked) [Aclacinomycin A] | mg/kg | 32.5
